Target: QPCTL (Homo sapiens (Human), UniProt Q9NXS2)
Experiment: QPCTL Enzymatic Activity Assay (coupled-enzyme fluorescent assay, H-Gln-AMC substrate)
Type: biochemical
Details: recombinant truncated human QPCTL 10-12 nM, 10 μM H-Gln-AMC; read-out: QPCTL Inhibition IC50
Sequence (Q9NXS2 53-382): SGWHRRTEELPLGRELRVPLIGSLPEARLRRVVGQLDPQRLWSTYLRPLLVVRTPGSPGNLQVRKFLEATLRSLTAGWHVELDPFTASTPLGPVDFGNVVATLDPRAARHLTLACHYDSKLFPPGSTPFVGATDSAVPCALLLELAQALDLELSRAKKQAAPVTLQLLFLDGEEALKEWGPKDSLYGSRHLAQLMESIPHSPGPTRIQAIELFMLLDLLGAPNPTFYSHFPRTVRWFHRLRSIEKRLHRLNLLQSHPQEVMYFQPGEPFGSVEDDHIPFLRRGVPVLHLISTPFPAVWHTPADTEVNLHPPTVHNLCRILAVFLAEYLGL
pIC50: −log10 of the molar value.
Catalogue of pIC50 readings, one per entry.

Cn1cnnc1C1CCN(c2c(-c3ccc(F)nc3)ccc(Cl)c2C#N)CC1 : > 7.00

Task: Give the measured pIC50 for "Cn1cnnc1C1CCN(c2c(C#N)cccc2-c2cnc(=O)n(C)c2)CC1"
Result: > 7.00

Task: Give the measured pIC50 for "CN(C)CCOc1ccc(-c2ccnnc2)c(N2CCC(c3nncn3C)CC2)c1C#N"
Result: > 7.00

Task: Give the measured pIC50 for "COc1ccncc1-c1cccc(C#N)c1N1CCC(c2nncn2C)CC1"
Result: > 7.00

Task: Give the measured pIC50 for "Cn1cnnc1C1CCN(c2c(C#N)cccc2-c2cncc3c2OCCN3)CC1"
Result: 6.00 to 7.00

====

Target: QPCTL (Homo sapiens (Human), UniProt Q9NXS2)
Assay: QPCTL Enzymatic Activity Assay (coupled-enzyme fluorescent assay, H-Gln-AMC substrate)
Type: biochemical
Details: recombinant truncated human QPCTL 10-12 nM, 10 μM H-Gln-AMC; read-out: QPCTL Inhibition IC50
pIC50: −log10 of the molar value.
MEASURE NAME: pIC50

Worked cases, answers included:
Cn1cnnc1C1CCN(c2c(C#N)cccc2-c2cnccn2)CC1 [Example 5] : 6.00 to 7.00
CN1CCOc2c(-c3cccc(C#N)c3N3CCC(c4nncn4C)CC3)cncc21 [Example 22] : 6.00 to 7.00
Cc1cc(-c2cccc(C#N)c2N2CCC(c3nncn3C)CC2)cnc1F [Example 47] : > 7.00
Cn1cnnc1C1CCN(c2c(C#N)cccc2-c2cncc(O)c2)CC1 [Example 120] : > 7.00

Task: Give the measured pIC50 for Cn1cnnc1C1CCN(c2c(C#N)cc(C(F)(F)F)cc2-c2ccc(F)nc2)CC1 [Example 70]
Result: > 7.00

Task: Give the measured pIC50 for Cc1ncn(-c2ccc(-c3ccc(F)nc3)c(N3CCC(c4nncn4C)CC3)c2C#N)n1 [Example 50]
Result: > 7.00

Task: Give the measured pIC50 for Cn1ccc(-c2cc(F)c(-c3ccc(F)nc3)c(N3CCC(c4nncn4C)CC3)c2C#N)n1 [Example 131]
Result: 5.00 to 6.00

Task: Give the measured pIC50 for [2H]C([2H])([2H])n1cnnc1C1CCN(c2c(-c3ccc(F)nc3)ccc(Cl)c2C#N)CC1 [Example 56]
Result: > 7.00

Task: Give the measured pIC50 for Cn1cnnc1C1CCN(c2c(-c3ccc(F)nc3)ccc(-c3ccccc3)c2C#N)CC1 [Example 28]
Result: > 7.00

Task: Give the measured pIC50 for Cn1cnnc1C1CCN(c2c(C#N)cc(C#N)cc2-c2ccc(F)nc2)CC1 [Example 100]
Result: > 7.00

====

Target: QPCTL (Homo sapiens (Human), UniProt Q9NXS2)
Assay: Inhibition of Cellular QPCTL Activity - Imaging Assay, CC2C6 anti-CD47 staining of DLD-1 cells
Format: cell-based
Conditions: 72 hours, CC2C6 anti-CD47 high-content imaging
Sequence (Q9NXS2 whole entry): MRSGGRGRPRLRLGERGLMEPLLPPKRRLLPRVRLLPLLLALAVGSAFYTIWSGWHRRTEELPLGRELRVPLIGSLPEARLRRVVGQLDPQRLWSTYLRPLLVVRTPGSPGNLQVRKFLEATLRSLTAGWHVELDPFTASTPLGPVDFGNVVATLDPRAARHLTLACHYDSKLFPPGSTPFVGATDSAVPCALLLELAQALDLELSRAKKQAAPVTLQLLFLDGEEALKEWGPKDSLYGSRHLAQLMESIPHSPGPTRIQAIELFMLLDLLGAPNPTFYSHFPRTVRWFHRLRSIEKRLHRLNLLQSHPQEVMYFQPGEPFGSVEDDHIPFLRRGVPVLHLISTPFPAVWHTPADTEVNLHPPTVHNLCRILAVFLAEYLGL
MEASURE NAME: IC50

CN(C)CCNc1ccc(-c2ccc(F)nc2)c(N2CCC(c3nncn3C)CC2)c1C#N : 100 to 1000 nM
Cn1cnnc1C1CCN(c2c(-c3ccc(F)nc3)ccc(-c3cnn(C4CCNCC4)c3)c2C#N)CC1 : 100 to 1000 nM
COc1ccc(-c2ccc(F)nc2)c(N2CCC(c3nncn3C)CC2)c1C#N : < 100 nM
Cn1cnnc1C1CCN(c2c(C#N)cccc2-c2ccc3c(c2)COB3O)CC1 : 1000 to 10000 nM
Cn1cnnc1C1CCN(c2c(C#N)cccc2-c2cncc(B(O)O)c2)CC1 : < 100 nM

Task: Give the measured IC50 for "Cn1cnnc1C1CCN(c2c(-c3ccc(F)nc3)ccc(-c3c[nH]nc3N)c2C#N)CC1"
Result: 100 to 1000 nM

Task: Give the measured IC50 for "Cn1cnnc1C1CCN(c2c(C#N)cc(C(F)(F)F)cc2-c2ccc(F)nc2)CC1"
Result: < 100 nM
